Reference source for all entries: PubChem BioAssay (NCI)

run_description: NCI Yeast Anticancer Drug Screen. Data for the rad50 strain (AID 155);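 further: 0% = growth of vehicle-only cultures of the same strain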
condition_label: S. cerevisiae rad50 strain growth inhibition; at 50.0 µM; hits give high values
Protocol: Growth inhibition of yeast strains with defined genetic alterations is measured as a screen for potential anti-cancer activity. Selected strains with alterations in DNA damage repair or cell cycle control were exposed to compounds and growth inhibition was measured relative to vehicle treated controls. The strain used in this assay is rad50
This is part of a sample that, as a whole, favours compounds with a hit. Of some 79,000 tested, about 15% had one in any assay.

{"compound": "CC[C@@]1(OC(=O)C(N)CCCCN)C(=O)OCc2c1cc1n(c2=O)Cc2cc3ccccc3nc2-1 (stereo partly specified)", "unit_abbrev": "%", "growth inhibition": 80.3}
{"compound": "O=C(Nc1cc(-c2ccccc2)[nH]n1)c1ccccc1F", "unit_abbrev": "%", "growth inhibition": 88.1}
{"compound": "C1=C(CN2CCCCC2)COc2ccccc21", "unit_abbrev": "%", "growth inhibition": 51.4}
{"compound": "COc1cccc(NC(=S)C(C#N)C(=O)Nc2cccc(C(F)(F)F)c2)c1 (stereo unspecified)", "unit_abbrev": "%", "growth inhibition": 78.2}
{"compound": "O=[N+]([O-])Cc1cnc2nncn2n1", "unit_abbrev": "%", "growth inhibition": 86.3}
{"compound": "N#CC(=C1C=CC(=NOC(=O)Nc2cccc3ccccc23)C=C1)c1ccccc1", "unit_abbrev": "%", "growth inhibition": 97.8}

----------
run_description: NCI Yeast Anticancer Drug Screen. Data for the bub3 strain (AID 167)
condition_label: S. cerevisiae bub3 mutant strain, at 5.0 µM (retest, dose inferred, filed as 0.5)
Compounds without any hit were thinned out: in the full panel of roughly 79,000, 15% have a hit. Calls of active or inactive are those of the source. No stated cut-off is given here; in the data, active means growth inhibition above about 70%; inactive means the rest.
Classes used: y = active, n = inactive

{"molecule": "Cc1cc(C)nc(NS(=O)(=O)c2ccc(Nc3c4ccccc4nc4c(C(=O)NCCCN(CCO)CCO)cccc34)cc2)n1", "group_label": "n"}
{"molecule": "O=C(Nc1cc(-c2ccccc2)[nH]n1)c1ccccc1F", "group_label": "n"}
{"molecule": "O=C(/C(=C\\c1ccc(Cl)c(Cl)c1)c1ccccc1)c1ccc(O)cc1", "group_label": "n"}
{"molecule": "O/N=C/c1cc(I)c(O)c(I)c1", "group_label": "y"}
{"molecule": "O=C(N/C=C/C=C/Sc1ccccc1)OCc1ccccc1", "group_label": "n"}
{"molecule": "NNc1nc2ccccc2s1", "group_label": "n"}
{"molecule": "CCOC(=O)C(CN)(c1ccccc1)c1ccccc1", "group_label": "n"}
{"molecule": "COc1nc(NC2OC(CO)C(O)C(O)C2O)c(Cl)c(=O)n1C (stereo not given)", "group_label": "n"}
{"molecule": "O=C(NNC(=O)c1ccccc1O)c1ccccc1O", "group_label": "n"}
{"molecule": "O=S(=O)(O)c1ccc2cc(N=Nc3c(O)ccc4ccccc34)ccc2c1", "group_label": "n"}
{"molecule": "COc1ccccc1NC(=O)C(/C=N/C(=S)NCCNc1ccc(OC)c(OC)c1)=C(\\C)O", "group_label": "n"}
{"molecule": "CC1(C)OC2C(O)C(O)C3OC(C)(C)OC3C2O1 (stereo not given)", "group_label": "n"}
{"molecule": "COC(=O)[C@@H](NS(=O)(=O)CC12CCC(CC1)C2(C)C)C(C)(C)C", "group_label": "n"}
{"molecule": "Nc1ccc2c(ccc3ccc4ccccc4c32)c1", "group_label": "n"}
{"molecule": "O=C1C(Cl)=C(N2CCN(C3=C(Cl)C(=O)c4ccccc4C3=O)CC2)C(=O)c2ccccc21", "group_label": "n"}
{"molecule": "Cc1ccnc2c1c(=O)c1ccccc1n2C", "group_label": "n"}
{"molecule": "OCC(O)C(O)C(O)C(/C=N/Nc1ccccc1)=N/Nc1ccccc1 (stereo not given)", "group_label": "n"}
{"molecule": "O=c1c(Cl)c(Cl)cnn1-c1ccccc1", "group_label": "n"}
{"molecule": "COC(O)C(=O)c1c2c(cc3c1CCC3)CCCC2 (stereo not given)", "group_label": "y"}
{"molecule": "COc1ccc2nc3cc(Cl)ccc3c(NCCCNCc3cc(OC)c(OC)c(OC)c3)c2c1", "group_label": "n"}
{"molecule": "CC(O)CN1CCN(CC(C)O)CC1.[I][Pt+2][I] (stereo not given)", "group_label": "n"}
{"molecule": "COc1ccc(/C=C/NC=O)cc1", "group_label": "n"}
{"molecule": "Cc1c2ccccc2c(C=O)c2ccccc12", "group_label": "n"}
{"molecule": "Nc1ccc2cc3ccc(N)cc3nc2c1", "group_label": "n"}
{"molecule": "COC(=O)CSC(=S)N1CCOCC1", "group_label": "n"}
